assay target: NR1/NR2B (Homo sapiens, UniProt Q05586+Q13224)
Construct: ICE Bioscience ICESTP SafetyOne44 Panel
Sequence (Q13224 27-1484, other chains not shown): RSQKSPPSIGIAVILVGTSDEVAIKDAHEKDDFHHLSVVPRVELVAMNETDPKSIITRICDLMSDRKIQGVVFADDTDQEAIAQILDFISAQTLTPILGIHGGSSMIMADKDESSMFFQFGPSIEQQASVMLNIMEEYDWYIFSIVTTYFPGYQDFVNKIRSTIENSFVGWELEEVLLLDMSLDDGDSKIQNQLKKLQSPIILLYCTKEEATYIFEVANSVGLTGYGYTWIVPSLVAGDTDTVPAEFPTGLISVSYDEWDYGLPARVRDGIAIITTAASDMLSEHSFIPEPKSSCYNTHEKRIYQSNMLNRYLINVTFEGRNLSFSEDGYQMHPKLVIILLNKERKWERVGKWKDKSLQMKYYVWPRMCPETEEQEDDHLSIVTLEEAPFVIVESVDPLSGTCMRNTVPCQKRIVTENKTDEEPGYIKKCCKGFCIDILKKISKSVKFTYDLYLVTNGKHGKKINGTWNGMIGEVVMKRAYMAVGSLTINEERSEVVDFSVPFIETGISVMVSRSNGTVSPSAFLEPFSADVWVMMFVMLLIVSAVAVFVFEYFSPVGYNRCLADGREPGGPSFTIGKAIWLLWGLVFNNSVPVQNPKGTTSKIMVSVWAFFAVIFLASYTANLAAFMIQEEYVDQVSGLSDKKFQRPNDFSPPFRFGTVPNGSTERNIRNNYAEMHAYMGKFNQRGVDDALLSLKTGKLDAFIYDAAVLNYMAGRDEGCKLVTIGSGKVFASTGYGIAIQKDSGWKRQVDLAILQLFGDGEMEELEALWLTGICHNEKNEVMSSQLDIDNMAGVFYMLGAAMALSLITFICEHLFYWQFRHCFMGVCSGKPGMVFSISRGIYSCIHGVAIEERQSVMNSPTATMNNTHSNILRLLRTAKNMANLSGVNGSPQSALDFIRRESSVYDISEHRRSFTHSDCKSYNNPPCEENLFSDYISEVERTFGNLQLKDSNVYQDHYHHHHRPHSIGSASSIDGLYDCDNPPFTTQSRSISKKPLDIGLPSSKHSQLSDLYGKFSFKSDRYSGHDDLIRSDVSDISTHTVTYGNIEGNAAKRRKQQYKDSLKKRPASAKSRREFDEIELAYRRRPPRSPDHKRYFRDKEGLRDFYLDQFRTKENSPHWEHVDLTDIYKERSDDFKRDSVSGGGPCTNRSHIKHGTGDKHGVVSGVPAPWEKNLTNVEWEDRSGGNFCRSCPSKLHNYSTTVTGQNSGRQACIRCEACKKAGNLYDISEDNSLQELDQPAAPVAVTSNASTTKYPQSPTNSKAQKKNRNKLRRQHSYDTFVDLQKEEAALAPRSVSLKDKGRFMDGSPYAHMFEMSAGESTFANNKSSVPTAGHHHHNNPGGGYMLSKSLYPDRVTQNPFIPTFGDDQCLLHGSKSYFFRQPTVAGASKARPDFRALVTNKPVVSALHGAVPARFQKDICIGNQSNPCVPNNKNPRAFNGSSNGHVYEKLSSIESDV
protocol text: SafetyOne44 panel ion channels: NR1/NR2B
setup conditions: read-out: Agonist Reference Compounds EC50
parameter measured: pEC50
Reminder that pEC50 means the negative base-10 logarithm of the concentration expressed in mol/L.

Query: Tell me pEC50 reported for NCC(=O)O [Glycine, reference compound]
Result: 6.88

* * *

protocol text: in vivo
setup conditions: male, C57BL/6, mouse, iv, 2 mg/kg, B/P, 180 min
parameter measured: Kp
Please give the numeric answer without any surrounding text.

Query: Look up and report measured Kp for this entry: "O=c1c2c3nc(n2Cc2ccc(Cl)cc2)Oc2ccc(F)c(c2)OCCCCCCn3c(=O)n1CCCO"
Result: 7.4
